Origin of values: ChEMBL document CHEMBL1137048

# test-target: UniProt:P06536
# Sequence (P06536 whole entry): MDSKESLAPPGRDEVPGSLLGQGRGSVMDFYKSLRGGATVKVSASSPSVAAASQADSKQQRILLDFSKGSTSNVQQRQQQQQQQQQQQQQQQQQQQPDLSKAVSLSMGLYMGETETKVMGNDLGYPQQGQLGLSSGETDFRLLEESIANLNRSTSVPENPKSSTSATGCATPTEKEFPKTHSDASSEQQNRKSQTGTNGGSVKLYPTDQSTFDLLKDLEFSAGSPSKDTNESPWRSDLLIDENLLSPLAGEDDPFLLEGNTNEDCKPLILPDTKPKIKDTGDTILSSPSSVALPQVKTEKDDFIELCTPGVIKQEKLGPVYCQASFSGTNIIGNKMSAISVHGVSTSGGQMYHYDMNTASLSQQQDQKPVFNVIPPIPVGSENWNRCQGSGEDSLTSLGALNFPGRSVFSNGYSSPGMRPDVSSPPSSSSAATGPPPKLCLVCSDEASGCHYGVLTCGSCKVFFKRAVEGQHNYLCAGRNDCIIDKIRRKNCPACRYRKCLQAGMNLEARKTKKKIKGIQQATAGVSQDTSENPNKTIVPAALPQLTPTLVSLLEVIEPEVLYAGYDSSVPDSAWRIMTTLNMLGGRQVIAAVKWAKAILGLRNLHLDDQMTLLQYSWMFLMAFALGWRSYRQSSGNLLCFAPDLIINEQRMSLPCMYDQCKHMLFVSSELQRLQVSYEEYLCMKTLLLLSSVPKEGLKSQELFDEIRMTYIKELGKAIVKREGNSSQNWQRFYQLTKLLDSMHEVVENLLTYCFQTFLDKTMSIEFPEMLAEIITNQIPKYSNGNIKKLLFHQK
# measurement-notes: Repression of AP1-luciferase reporter activity in TPA-stimulated U2OS cells expressing rat glucocorticoid receptor
# Type: functional, cell-based
Provide the recorded EC50 for the entries that follow.
Answers are plain numbers, in nM.

- compound: "Cc1ccc(C(O)[C@H]2CCCC3=Cc4c(cnn4-c4ccc(F)cc4)C[C@@]32C)cc1 (stereo partly drawn)"
  result-units: "nM"
  EC50: 3
- compound: "C[C@]12Cc3cnn(-c4ccc(F)cc4)c3C=C1CCC[C@@H]2C(O)CCc1ccccc1 (stereo partly drawn)"
  result-units: "nM"
  EC50: 7
- compound: "CCCCC(O)[C@H]1CCCC2=Cc3c(cnn3-c3ccc(F)cc3)C[C@@]21C (stereo partly drawn)"
  result-units: "nM"
  EC50: 8
- compound: "COc1cccc(C(O)[C@H]2CCCC3=Cc4c(cnn4-c4ccc(F)cc4)C[C@@]32C)c1 (stereo partly drawn)"
  result-units: "nM"
  EC50: 19
- compound: "C[C@@H]1C[C@H]2C3CCC4=CC(=O)C=C[C@]4(C)[C@@]3(F)[C@@H](O)C[C@]2(C)[C@@]1(O)C(=O)O (stereo partly drawn)"
  result-units: "nM"
  EC50: 0.2

Batch of 3 compounds: report EC50 for each.
1. CCCCCCCCC(O)[C@H]1CCCC2=Cc3c(cnn3-c3ccc(F)cc3)C[C@@]21C (stereo partly drawn)
2. C[C@]12Cc3cnn(-c4ccc(F)cc4)c3C=C1CCC[C@@H]2C(O)c1csc2ccccc12 (stereo partly drawn)
3. C[C@]12Cc3cnn(-c4ccc(F)cc4)c3C=C1CCC[C@@H]2C(O)Cc1ccccc1 (stereo partly drawn)

### Response
6
1.8
17
